- TARGET: UniProt:Q04206
- Sequence (Q04206 whole entry): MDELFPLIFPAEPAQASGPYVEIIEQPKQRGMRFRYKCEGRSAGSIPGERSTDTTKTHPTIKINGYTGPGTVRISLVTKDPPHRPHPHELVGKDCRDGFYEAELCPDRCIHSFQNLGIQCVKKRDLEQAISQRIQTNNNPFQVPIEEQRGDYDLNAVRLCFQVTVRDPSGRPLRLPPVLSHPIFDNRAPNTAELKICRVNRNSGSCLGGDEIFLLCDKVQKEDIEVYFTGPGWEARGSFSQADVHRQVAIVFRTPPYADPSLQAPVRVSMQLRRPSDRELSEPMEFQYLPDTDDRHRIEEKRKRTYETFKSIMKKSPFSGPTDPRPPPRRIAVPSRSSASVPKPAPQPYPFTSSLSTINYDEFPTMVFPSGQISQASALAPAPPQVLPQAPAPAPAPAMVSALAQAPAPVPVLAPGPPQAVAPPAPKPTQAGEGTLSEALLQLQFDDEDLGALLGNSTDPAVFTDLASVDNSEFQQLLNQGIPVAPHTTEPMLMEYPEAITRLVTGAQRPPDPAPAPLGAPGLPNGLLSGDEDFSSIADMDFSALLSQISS
- EXPERIMENT_SUMMARY: NF-κB p65 inhibition assay
MEASURE: IC50

Could you tell me which IC50 is on file for C=CC(C)(CO)c1cc(CC(=O)c2ccc(O)cc2O)c(O)cc1O (stereo not drawn) ?
> 20 µM

Could you tell me which IC50 is on file for C=CC(C)(O)Cc1cc(CC(=O)c2ccc(O)cc2O)c(O)cc1O (stereo not drawn) ?
> 20 µM

Could you tell me which IC50 is on file for C=CC(C)(CO)c1cc2c(=O)c(-c3ccc(O)cc3O)coc2cc1O (stereo not drawn) ?
0.45 µM

----------
- System: HT-29 human colon cancer cell line
- EXPERIMENT_SUMMARY: Cytotoxicity against HT-29 cell line
- Assay type: cell-based
- TEST_SETTINGS: HT-29, read-out: cytotoxicity IC50 (concentration inhibiting HT-29 cell growth by 50%)
MEASURE: IC50

Could you tell me which IC50 is on file for C=CC(C)(CO)c1cc(CC(=O)c2ccc(O)cc2O)c(O)cc1O (stereo not drawn) ?
> 10 µM

Could you tell me which IC50 is on file for C=CC(C)(CO)c1cc2c(=O)c(-c3ccc(O)cc3O)coc2cc1O (stereo not drawn) ?
> 10 µM

Could you tell me which IC50 is on file for C=CC(C)(O)Cc1cc(CC(=O)c2ccc(O)cc2O)c(O)cc1O (stereo not drawn) ?
> 10 µM
